# measured on: Glucose transporter (Leishmania mexicana) (UniProt O61059)
# assay text: ST_JUDE_LEISH: Cytotoxicity at 2uM final concentration against transgenic Leishmania Mexicana promastigotes LmGT2 that are glucose transport deficient and complemented with the L. Mexicana glucose transporter 2. Activity is measured by DNA content using SYBR green in vitro
# Assay type: functional
readout type: inhibition (%)

>>> print(df.to_string())
                                    molecule  readout_type  units_of_measure  meas_value
 0  COc1cc2c(cc1C=CC(=O)N1CCN(Cc3nc(O)c4c(C)c(C)sc4n3)CC1)OC(C)C2 (configuration not stated)    inhibition                 %        2.08
 1                O=[N+]([O-])c1ccc2nccnc2c1    inhibition                 %         6.9
 2  COc1ccc(-c2cccc(NC(=O)c3ccc(C#N)cc3)c2)cc1CN1CCCC1    inhibition                 %        2.91
 3  CCOc1ccc(-c2nonc2NC(=O)c2ccc(F)cc2)cc1OCC    inhibition                 %         1.5
 4  CC(C)n1c(C(C)(C)C)cc2c3c(N)nc(N)nc3ccc21    inhibition                 %        44.4
 5  CCCC(C)NC(=O)[C@H](CC1CCCCC1)NC(=O)c1ccc(O)c(-c2cccc(C(F)(F)F)c2)c1 (some centres not stated)    inhibition                 %        0.42
 6  COc1ccc2cc(CNCCCCCCNCc3ccc4cc(OC)ccc4c3)ccc2c1    inhibition                 %         103
 7  CCN1CCN(Cc2ccc(NC(=O)c3cc4ccc5cccnc5c4[nH]3)cc2)CC1    inhibition                 %        11.4
 8  Cc1cc2nc(-c3ccc(C(=O)NCc4ccc(C(C)(C)C)cc4)cc3)[nH]c2cc1C    inhibition                 %        -0.6
 9  CCOc1cc(CC)ccc1C1CCN(CCCCNC(=O)c2ccc(NC(=O)c3ccc(C#N)cc3)cc2)CC1    inhibition                 %        2.06
10  Cc1cccc2c3c([nH]c12)C1(CCN(CCc2ccccc2)CC1)NC(C(=O)NCc1ccccc1)C3 (configuration not stated)    inhibition                 %        0.71
11  O=C(Cc1ccccn1)Nc1cccc(-c2cccc(-c3nc4cc(C(F)(F)F)ccc4[nH]3)c2)c1    inhibition                 %        -0.1
12   CN(C)S(=O)(=O)n1ccc2c3c(N)nc(N)nc3ccc21    inhibition                 %        29.3
13  O=C(Nc1cccc(CN2CCCN(Cc3ccccc3)CC2)c1)c1ccc(Cl)c(Cl)c1    inhibition                 %       -5.96
14     Cc1ccc(O)cc1Nc1ccnc2ccc(C(C)(C)C)cc12    inhibition                 %       -2.07
15  CC(=O)c1ccc2c(c1)C(NC(=O)c1cccc(Cl)c1Cl)C(CO)C(C)(C)O2 (configuration not stated)    inhibition                 %       -1.69
16  CCN(CC)CCNC(=O)c1ccc(Nc2ncc([N+](=O)[O-])c(Nc3ccccc3OC)n2)cc1    inhibition                 %        3.73
17  COCCNCc1cccc(-c2cccc(CNC3CCN(Cc4ccccc4)CC3)c2)c1    inhibition                 %        2.88
18  N#Cc1ccc(CN2CCCN(c3ccc(NC(=O)c4ccc(F)cc4)cc3)CC2)cc1    inhibition                 %        0.81
19       COc1ccc2nc(C)cc(NC3Cc4ccccc4C3)c2c1    inhibition                 %        0.76
20  COc1cc2nc(SCC(C)C)n(CCCn3ccnc3)c(=N)c2cc1OC    inhibition                 %         3.6
21  CNC(=O)NC1=NC(C)(C)N(OCCCOc2cc(Cl)c(Cl)cc2Cl)C(N)=N1    inhibition                 %        11.6
22  O=C(NC1CCCCC1)N(Cc1ccc(-c2cccc(CNCc3ccc4c(c3)OCO4)c2)cc1)C1CCN(Cc2ccccc2)CC1    inhibition                 %        0.81
23  CCOc1ccc(Br)cc1/C=C/C(=O)Nc1ccc2c(c1)CCCN(C)C2    inhibition                 %        11.8
24            Oc1cc(Nc2ccnc3cc(I)ccc23)ccc1F    inhibition                 %        0.37
25  CCCC(=O)Nc1ccc(OCCN(Cc2ccccc2OC(F)(F)F)c2ccc(C(F)(F)F)c(C#N)c2)cc1    inhibition                 %        2.31
26  CN(C(=O)Cc1ccc(Cl)c(Cl)c1)C1CCN(CCCCCNC(=O)/C=C/c2ccc(Cl)c(Cl)c2)CC1    inhibition                 %        3.27
27             Cc1ccc2[nH]c(C)c(Br)c(=O)c2c1    inhibition                 %       -3.38
28  CC(=NO)C1=C(O)C(c2ccccc2)N(c2ccccc2)C1=O (configuration not stated)    inhibition                 %        1.72
29  COc1ccccc1C1CCN(C2CCC(NC(=O)/C=C/c3cc(C(F)(F)F)ccc3F)CC2)CC1 (configuration not stated)    inhibition                 %        3.14
30      Cc1cc(Nc2ccc(Cl)c(Cl)c2)n2nc(C)nc2n1    inhibition                 %        0.04
31          CN(C)C(=S)N/N=C1/C(=O)Nc2ccccc21    inhibition                 %        1.43

Source of measurements: ChEMBL document CHEMBL3433997
